Numbers sourced from the supplement of paper PMC9170038.

Test system: MS2 coat protein
Test: apparent KD of MS2 coat protein; designed switch direction (-1 OFF switch, 1 ON switch): -1; higher = weaker reporter binding
Settings: input ligand: FMN 200 uM
As shown below, each of these sequences has a reported apparent KD of MS2 coat protein value.

sequence-code | unit-name | apparent KD of MS2 coat protein
CUUUUGUGAGGAUAUUAGUAGUAAAUAAAUAAAAUUACUACUGAGAAGGCACAUGAGGAUCACCCAUGUUCCUC [Salish 062 v16] (Eterna round: R97, puzzle: Exclusion 4) | nM | 358
ACAUGUAUUGCAGGAUAUGGGACACAUGAGGAUCACCCAUGUGACUACAUGUAAUGCCACGGGUCUCAGAAGGGUAUGUACAUG [Ex NG2 #42] (Eterna round: R96, puzzle: Exclusion NG 2) | nM | 81.5
AAUUUCGCGGCCCGAUGACUGCGUACUGACAGUGAGCUCACAUGAGGAUCACCCAUGUUUUUUGCUCGUAAAUCAGA [Quarat] (Eterna round: R96, puzzle: Sensor v2, turn-off variant 2) | nM | 13.6
AUUGGGCAAGCAUGAUCCCACAUGAGGAUCACCCAUGUGUUCGUCUUAUAGGCUGCUGAGGCUUUUGCCUCGGUGGC [LRO Sensor-off var1-02 loose mod of D91 from Mat747] (Eterna round: R97, puzzle: Sensor, turn-off variant 1) | nM | 706
UAUAAGAUAGGAUAUACAGGCCCGUCUUCAUAUCGAUCCCGACAUGAGGAUCACCCAUGUAGAAGGAUCGUAUA [Mod 22 - Jieux - Exclusion 2] (Eterna round: R97, puzzle: Exclusion 2) | nM | 15
GCACGGAGUGUAGGAUAUUAGUGCGAUUAGCACUGAGAAGGACAUGAGGAUCACCCAUGUUCCUCUAAAAUUAGCCUUCCGUGC [Eli exng1 - 036] (Eterna round: R96, puzzle: Exclusion NG 1) | nM | 12.4
UUUCGGCAUGUAGGAUAUGGGUCCGAUUAGGAUUUAGAAGGACAUGAGGAUCACCCAUGUGCAUUUAAUUGGUCAUUACCGUUU [EXclNG1-LROPPY09] (Eterna round: R96, puzzle: Exclusion NG 1) | nM | 86.7
GCACGGAUGGUAGGAUAUCUGUGCGAUUAGCUCAGAGAAGGACCACAUGAGGAUCACCCAUGUACCUCAAUUAACCUUCCGUGC [Eli exng1 - 021] (Eterna round: R96, puzzle: Exclusion NG 1) | nM | 16.9
AGGUGUAGAGGAUAUCUAUCCUCGCACAUGAGGAUCACCCAUGUCCUGGUCACCAAGGACGGAGAAGGCUACACCA [Omei Ex5 D20] (Eterna round: R97, puzzle: Exclusion 5) | nM | 427
AAAGAAACAUGAGGAUCACCCAUGUCUGAUCCAAUGUUUAGUCAGGAUAUGCGUCCGACUUCGGAGCAGAAGGGAUACAGGUAG [Anlaanma] (Eterna round: R96, puzzle: Exclusion NG 3) | nM | 125
GCCUUAGGAGUCAGGAUAUACAAUAAAAUAAUUAAGUAGAAGGGACAUGAGGAUCACCCAUGUACAUUACAUUG [alecazam29] (Eterna round: R97, puzzle: Brourd's mod of Exclusion 4) | nM | 31
AGUAUGCGGCAGGAUAUCCAUCCGCGGUGAGGUGGAGAAGGGCUGACAUGAGGAUCACCCAUGUGCGUCCUGUA [salish99_ex6_r4_027] (Eterna round: R97, puzzle: Exclusion 6) | nM | 29.4
AAAAGAAAACGAGGAUAUGCGCGUAACGUACAUCCUCUAGACAUGAGGAUCACCCAUGUAGCGCAGCAGAAGGCGUAAAAGAAA [Orises] (Eterna round: R96, puzzle: Exclusion NG 2) | nM | 724
UGAUUGAUUAACAGAUUAUACAUGAGGAUCACCCAUGUAGGUCCUACGUGCACUUUAUGCAGCUCGUCUUAUUCCCA [Sensor-V1 #71] (Eterna round: R97, puzzle: Sensor, turn-off variant 1) | nM | 34.4
AAACCUAGUCUAGGAUAUGGUGAGAGUUUGUCGGUGAGUACAUGAGGAUCACCCAUGUACGCUUGCUAGAAGGAGACAGGCUCG [Eternabot solution 37] (Eterna round: R96, puzzle: Exclusion NG 2) | nM | 13.7
AUUAAACAUGUAGGAUAUGCGUAGCAAAGCUAUGCAGAAGGACAUGAGGAUCACCCAUGUAAAAGCGUCUGAGUACAGAUGCAA [Mat - Exclusion NG 1 - Mod of JL - D88] (Eterna round: R96, puzzle: Exclusion NG 1) | nM | 936
UCAACGCAAGGAUAUACUUGCGGUGAUGUUCGAAAUCUUCUACUUGAGGAUCACCCAAGUAGAAGGUGCGGUGA [jl-ex2.4.65 ViennaUCT mod] (Eterna round: R97, puzzle: Exclusion 2) | nM | 12.8
GCAGCACAUGUAGGAUAUCUGCACGUUUAGUGCAGAGAAGGACAUGAGGAUCACCCAUGUAAUUAAGAUCAAUUAUUAAGCUGC [ENG1/3-C2] (Eterna round: R96, puzzle: Exclusion NG 1) | nM | 178
